# credit: patent US4076814A

- System: Mycoplasma hyorhinis
- experimentSummary: Antimicrobial test, conventional agar plate dilution method, Mycoplasma hyorhinis
- Type: cell-based
- assayContext: Mycoplasma, read-out: Minimum Inhibitory Concentration, Mycoplasma hyorhinis

compound | assayedSystem | MIC
CCN(CC)C(=S)SCCC(C)=O [compound 79, 2-Acetylethyl diethyldithiocarbamate] | Mycoplasma hyorhinis | 0.012 µg/mL
O=c1cc(CO)oc(CSC(=S)N2CCCC2)c1O | Mycoplasma hyorhinis | 0.39 µg/mL
CN(C)C(=S)SCC1CCCCC1=O (centres unmarked) | Mycoplasma hyorhinis | 0.05 µg/mL
CC(=O)CCSC(=S)N1CCN(C)CC1.Cl | Mycoplasma hyorhinis | 0.05 µg/mL
COc1cc(CSC(=S)N2CCCCC2)cc(OC)c1O | Mycoplasma hyorhinis | 0.39 µg/mL
CN(C)C(=S)SCCC(=O)CCc1ccccc1 | Mycoplasma hyorhinis | 0.2 µg/mL
CC(=O)CCSC(=S)N1CCCCC1 [compound 88, 2-Acetylethyl 1-piperidinecarbodithioate] | Mycoplasma hyorhinis | 0.025 µg/mL
Cc1cc(C)c(O)c(CSC(=S)N(C)C)c1 | Mycoplasma hyorhinis | 0.2 µg/mL
CC=Cc1cc(CSC(=S)N(CC)CC)c(O)c(OC)c1 | Mycoplasma hyorhinis | 0.39 µg/mL
O=C1CCCCC1CSC(=S)N1CCCCC1 (centres unmarked) | Mycoplasma hyorhinis | 0.2 µg/mL
CC(=O)C(C)CSC(=S)N1CCCCC1 (centres unmarked) | Mycoplasma hyorhinis | 0.05 µg/mL
CCN(CC)C(=S)SCCC(=O)CCc1ccc(OC)cc1 | Mycoplasma hyorhinis | 0.2 µg/mL
CCN(CC)C(=S)SCc1cc(C(C)(C)C)c(O)c(C(C)(C)C)c1 | Mycoplasma hyorhinis | 1.56 µg/mL
CN(C)C(=S)SCC1CCCC1=O (centres unmarked) | Mycoplasma hyorhinis | 0.05 µg/mL
CC(C)(C)c1cc(CSC(=S)N2CCCCCC2)cc(C(C)(C)C)c1O | Mycoplasma hyorhinis | 0.78 µg/mL
Cc1cc(CSC(=S)N2CCCC2)cc(C)c1O | Mycoplasma hyorhinis | 0.78 µg/mL
O=C(CCSC(=S)N1CCCCC1)c1ccccc1 | Mycoplasma hyorhinis | 0.2 µg/mL
CC(C)(C)c1cc(CSC(=S)N2CCOCC2)cc(C(C)(C)C)c1O | Mycoplasma hyorhinis | 0.1 µg/mL
Cc1cc2c(c(O)c1CSC(=S)N1CCOCC1)C1OCC34CCCC(C)(C)C3CCC(C)(O2)C14 (centres unmarked) | Mycoplasma hyorhinis | 1.56 µg/mL
O=c1cc(CO)oc(CSC(=S)N2CCOCC2)c1O | Mycoplasma hyorhinis | 0.78 µg/mL
